Tested on: A-375
PROTOCOL SUMMARY: Cytotoxicity against human A-375 cells assessed as reduction in cell viability incubated for 24 hrs by CCK-8 assay
Format: functional, cell-based
MEASUREMENT CONDITIONS: A-375, 24 h
pIC50: −log10 of the molar value.
Where pIC50 equals or exceeds 6, the correct label is met; where it does not, the label is not met.

Use the examples below as a reference point.
{"columns": ["CHEMICAL STRUCTURE", "LABEL CLASS"],
 "data": [
  ["COc1ccccc1Oc1c(N)nc(-c2cccc(I)c2)nc1Cl", "not met"],
  ["COc1ccccc1Oc1c(N)nc(-c2ccc(C)cc2)nc1Cl", "not met"]
]}

Evaluate `COc1ccccc1Oc1c(N)nc(-c2ccc(Br)cc2)nc1Cl` : pIC50 at minimum 6?
met

Exam item: decide whether the reported pIC50 for `COc1ccccc1Oc1c(N)nc(-c2ccc(Br)cc2)nc1OCCO` is at least 6.
not met

# check: pIC50 of `COc1ccccc1Oc1c(NS(=O)(=O)c2ccc(C(C)(C)C)cc2)nc(-c2ncccn2)nc1OCCO` is greater than or equal to 6
not met

Entry `COc1ccccc1Oc1c(N)nc(-c2ccccc2)nc1Cl` : is its pIC50 no less than 6?
not met

Can `COc1ccccc1Oc1c(N)nc(Cc2ccccc2)nc1OCCO` be said to have pIC50 at or above 6?
met

Could you please find out whether `COc1ccccc1Oc1c(N)nc(-c2ccccc2F)nc1Cl` has pIC50 that meets 6 or exceeds it?
not met
